system: Vero E6 infected with SARS-CoV-2; test: inhibition of SARS-CoV-2 cytopathic effect; higher = more antiviral protection, active = above 15; conditions: 833.33 nM; 48 h
Reported inhibition of SARS-CoV-2 cytopathic effect values for a set of molecules

{"molecule": "O=C(NCc1ccccc1)OCCO [buramate]", "reported_value": "1.79% (inactive)"}
{"molecule": "CCN(CC)CCOc1ccccc1C(=O)CCc1ccccc1", "reported_value": "0.23% (inactive)"}
{"molecule": "O=C(COc1ccc(C(=O)c2ccccc2)cc1)NC1CCN(Cc2ccccc2)CC1", "reported_value": "0.19% (inactive)"}
{"molecule": "CCOC(=O)c1cncn1[C@H](C)c1ccccc1 [etomidate]", "reported_value": "1.97% (inactive)"}

With those in mind, consider the next molecule.
// field: inhibition of SARS-CoV-2 cytopathic effect; key: `CCC(=O)c1cc(-c2ccc(Cl)cc2)n(-c2ccc(S(N)(=O)=O)cc2)c1C` ; value = -1.12% (inactive)

---

system: Vero E6 infected with SARS-CoV-2; assay: inhibition of SARS-CoV-2 cytopathic effect; higher = more antiviral protection, active = above 15; details: 8.33 nM; 48 h
measure_name: inhibition of SARS-CoV-2 cytopathic effect

Field: example entries. Status: answers known.
{"compound": "Cc1ccc(S(=O)(=O)n2c(N)nc3ccccc32)cc1", "reported_value": "-0.92% (inactive)"}
{"compound": "CCOC(=O)[C@H](CCc1ccccc1)N[C@@H](C)C(=O)N1C(=O)N(C)C[C@H]1C(=O)O", "reported_value": "0.74% (inactive)"}
{"compound": "CCCN[C@@H]1CCc2c(OC)cccc2[C@@H]1C", "reported_value": "-1.5% (inactive)"}
{"compound": "CCC[C@@H]1C[C@@H](C(=O)N[C@@H]([C@H]2O[C@H](SC)[C@H](O)[C@@H](O)[C@H]2O)[C@@H](C)O)N(C)C1", "reported_value": "2.66% (inactive)"}

// field: inhibition of SARS-CoV-2 cytopathic effect; key: `CCCC[C@@]1(C2CCCC2)Cc2cc(OCCCC(=O)O)c(Cl)c(Cl)c2C1=O` ; value = 0.21% (inactive)

// field: inhibition of SARS-CoV-2 cytopathic effect; key: `CC[C@@H](CO)NCCN[C@@H](CC)CO` ; value = 4.26% (inactive)

// field: inhibition of SARS-CoV-2 cytopathic effect; key: COc1ccc(C2CC(c3ccccc3)=NN2c2ccc(S(N)(=O)=O)cc2)cc1 (stereo not drawn) ; value = 2.1% (inactive)

// field: inhibition of SARS-CoV-2 cytopathic effect; key: `C[C@H](NC(=O)C(C)(C)Oc1ccc(C(F)(F)F)cn1)[C@@H](Cc1ccc(Cl)cc1)c1cccc(C#N)c1` ; value = 0.33% (inactive)

---

test system: Vero E6 infected with SARS-CoV-2; experiment: inhibition of SARS-CoV-2 cytopathic effect; higher = more antiviral protection, active = above 15; conditions: 10000 nM; 48 h
measure_name: inhibition of SARS-CoV-2 cytopathic effect (%)
A number alone suffices; assume %.

Field: example entries. Status: answers known.
{"compound": "C=CC1=C(C)C2=CC3=NC(=C(CC(=O)O)C4=NC(=C(C)C4=C(O)O)C=c4[nH]c(c(C)c4CC)=CC1=N2)C(CCC(=O)O)C3C (configuration not stated)", "target_or_system": "Vero E6 infected with SARS-CoV-2", "reported_value": -10.6}
{"compound": "Cn1cccc1/C=C1\\C(=O)NC(=O)c2ccccc21", "target_or_system": "Vero E6 infected with SARS-CoV-2", "reported_value": 5}
{"compound": "C=CCN1C[C@H](C)N([C@H](c2ccc(C(=O)N(CC)CC)cc2)c2cccc(OC)c2)C[C@H]1C", "target_or_system": "Vero E6 infected with SARS-CoV-2", "reported_value": -1.85}
{"compound": "CCCCC/C=C\\C/C=C\\CCCCCCCC(=O)NCCCC(=O)O [GABA-linoleamide]", "target_or_system": "Vero E6 infected with SARS-CoV-2", "reported_value": -0.15}
{"compound": "C[C@]12CC[C@@H](O)C[C@H]1CC[C@@H]1[C@@H]2CC[C@]2(C)C(=O)CC[C@@H]12 [3-alpha-hydroxy-5-beta-androstan-17-one]", "target_or_system": "Vero E6 infected with SARS-CoV-2", "reported_value": 2.64}
{"compound": "O=C1c2ccccc2C(Cc2ccnc(F)c2)(Cc2ccnc(F)c2)c2ccccc21", "target_or_system": "Vero E6 infected with SARS-CoV-2", "reported_value": -2.51}

With those in mind, consider the next compound.
// field: inhibition of SARS-CoV-2 cytopathic effect; key: `OCC(CO)N[C@H]1C[C@](O)(CO)[C@@H](O)[C@H](O)[C@H]1O` ; value = 2.03

---

system: Vero E6 infected with SARS-CoV-2; assay: inhibition of SARS-CoV-2 cytopathic effect; higher = more antiviral protection, active = above 15; conditions: 1 nM; 48 h
Reported inhibition of SARS-CoV-2 cytopathic effect values for a set of compounds
A number alone suffices; assume %.

Field: example entries. Status: answers known.
{"compound": "Clc1ccc(-c2nc3sccn3c2/C=N/OCc2ccc(Cl)c(Cl)c2)cc1", "reported_value": -0.5}
{"compound": "CCCCCCOc1nsnc1C1=CCCN(C)C1 [xanomeline]", "reported_value": 0.86}
{"compound": "COc1ccc(C(=O)c2ccccc2O)c(O)c1 [dioxybenzone]", "reported_value": 1.95}
{"compound": "NS(=O)(=O)c1cc(C(=O)O)cc(N2CCCC2)c1Oc1ccccc1 [piretanide]", "reported_value": 3.5}
{"compound": "COc1cc(OC)c(/C=C/S(=O)(=O)Cc2ccc(OC)c(OP(=O)(O)O)c2)c(OC)c1 [briciclib]", "reported_value": 1.41}
{"compound": "CC[C@H]1OC(=O)C[C@@H](O)[C@H](C)[C@@H](O[C@@H]2O[C@H](C)C[C@H](N(C)C)[C@H]2O)[C@@H](CC=O)C[C@@H](C)C(=O)/C=C/[C@]2(C)O[C@H]2[C@@H]1C [rosamicin]", "reported_value": 1.84}

// field: inhibition of SARS-CoV-2 cytopathic effect; key: C[C@@H]1CC[C@@]2(OC1)O[C@H]1C[C@H]3[C@@H]4CC=C5C[C@@H](O[C@@H]6O[C@H](CO)[C@@H](O[C@@H]7O[C@@H](C)[C@H](O)[C@@H](O)[C@H]7O)[C@H](O)[C@H]6O[C@@H]6O[C@@H](C)[C@H](O)[C@@H](O)[C@H]6O)CC[C@]5(C)[C@H]4CC[C@]3(C)[C@H]1[C@@H]2C [dioscin] ; value = -2.63

// field: inhibition of SARS-CoV-2 cytopathic effect; key: `COc1ccccc1CN[C@H]1CCCN[C@H]1c1ccccc1` ; value = -0.59

// field: inhibition of SARS-CoV-2 cytopathic effect; key: `CCCOCCn1c(=O)c(N2CCN(CCO)CC2)nc2cnc(-c3ccc(OC)nc3)cc21` ; value = 0.37

// field: inhibition of SARS-CoV-2 cytopathic effect; key: `CCOc1cn(-c2ccc(F)cc2C)nc1C(=O)Nc1ccc(Oc2ccnc3cc(OC)c(OC)cc23)c(F)c1` ; value = -0.58

// field: inhibition of SARS-CoV-2 cytopathic effect; key: COc1cc([S+](C)[O-])ccc1-c1nc2cccnc2[nH]1 (configuration not stated) [sulmazole] ; value = -0.6

// field: inhibition of SARS-CoV-2 cytopathic effect; key: Cc1cnc(C(=O)O)c[n+]1[O-] [acipimox] ; value = -1.88

// field: inhibition of SARS-CoV-2 cytopathic effect; key: CCCCCCCCCCCC(=O)O [lauric-acid] ; value = 0.97

// field: inhibition of SARS-CoV-2 cytopathic effect; key: COc1ccc2c(c1)C(C(=O)N(Cc1ccc(N(C)C)cc1)c1ccc(C(C)C)cc1)CCC2 (configuration not stated) ; value = -2.02

// field: inhibition of SARS-CoV-2 cytopathic effect; key: `O=C(NCCS(=O)(=O)c1ccc(C(F)(F)F)cn1)c1ccc(Cl)cc1` ; value = 4.56

// field: inhibition of SARS-CoV-2 cytopathic effect; key: O=C(/C=C/c1ccccc1)NC(NC(=S)Nc1cccc2cccnc12)C(Cl)(Cl)Cl (configuration not stated) [salubrinal] ; value = 3.2

// field: inhibition of SARS-CoV-2 cytopathic effect; key: `Cn1ncc2c(N3CCOCC3)nc(-c3cccc(O)c3)nc21` ; value = -0.24

// field: inhibition of SARS-CoV-2 cytopathic effect; key: Cc1nc2n(c(=O)c1CCN1CCC(c3noc4cc(F)ccc34)CC1)CCCC2O (configuration not stated) [paliperidone] ; value = -1.5

// field: inhibition of SARS-CoV-2 cytopathic effect; key: CCC[C@@H]1C[C@@H](C(=O)N[C@@H]([C@H]2O[C@H](SC)[C@H](OP(=O)(O)O)[C@@H](O)[C@H]2O)[C@H](C)Cl)N(C)C1 [Clindamycin phosphate] ; value = 2.18

// field: inhibition of SARS-CoV-2 cytopathic effect; key: CCCNC(C)(C)COC(=O)c1ccccc1 [meprylcaine] ; value = 2.21

// field: inhibition of SARS-CoV-2 cytopathic effect; key: CCCc1nc(C(C)(C)O)c(C(=O)O)n1Cc1ccc(-c2ccccc2-c2nnn[nH]2)cc1 [olmesartan] ; value = 1.89

// field: inhibition of SARS-CoV-2 cytopathic effect; key: OC[C@H]1O[C@@H](Oc2cc(O)cc(/C=C/c3ccc(O)cc3)c2)[C@H](O)[C@@H](O)[C@@H]1O [polydatin] ; value = -1.01
